This section presents compounds with their documented IC50 values.
- Tested on: P. falciparum stage V gametocytes
- experiment_summary: Gametocytocidal ATP bioluminescence assay (single point 5 μM and 1 μM, dose-response)
- Type: cell-based, Plasmodium falciparum
- experimental_conditions: Plasmodium falciparum; P. falciparum gametocytes; average; read-out: IC50 Pf Gametocytes average, IC50 (µM) average
Quick note: give the figure in µM, leave out the unit.

Please review the entries below; each comes with its answer.
CN1CCN(CCCNCc2cccc(-c3ccc(CNCCc4ccccc4)cc3)c2)CC1    0.41
COc1ccc2nc3cc(Cl)ccc3c(NCCCCCCNc3c4ccc(Cl)cc4nc4ccc(OC)cc34)c2c1    0.05
CCN(CC)C(=NCCCCCCN=C(NC(=N)c1ccc(Cl)cc1)N(CC)CC)NC(=N)c1ccc(Cl)cc1    0.84
COc1ccc(Nc2nccc(-c3ccc4ccnc(NCCCCN)c4c3)n2)cc1    0.33
Cc1n[nH]c2ccc(-c3ccc4nccc(N5CCC(N)CC5)c4c3)cc12    0.38

Prompt: Return IC50 measured with P. falciparum stage V gametocytes given this compound: CCCCN(CCCC)CCCCNc1c2ccccc2nc2ccccc12
Completion: 0.55

Prompt: Could you share what IC50 was measured for COc1ccc2nc3cc(Cl)ccc3c(NCCN3CCN(C)CC3)c2c1 , tested on P. falciparum stage V gametocytes?
Completion: 1.88

Prompt: Request - read-out IC50 | tested on P. falciparum stage V gametocytes | compound CC(CNC(=N)c1cccc(C(=N)NCC(C)Oc2cccc(C3CCCCC3)c2)n1)Oc1cccc(C2CCCCC2)c1.Cl (stereo not shown)
Completion: 0.24

Prompt: Identify the measured IC50 of Oc1ccc(CCNCCCCCCNCCc2ccc(Cl)c3ccccc23)cc1O for P. falciparum stage V gametocytes.
Completion: 0.53

Prompt: Provide the documented IC50 with P. falciparum stage V gametocytes as the system for NCc1ccc(CNCc2cccc(-c3ccc(-c4nc5ccccc5[nH]4)cc3)c2)cc1
Completion: 0.48

Prompt: Reported IC50 for P. falciparum stage V gametocytes, given CC(C)c1ccc(CN2CCC(CNC(=O)c3cc(-c4cccc(F)c4)cs3)C2)cc1 (stereo not shown) ?
Completion: 0.45

Prompt: // map Fc1ccc2[nH]c(-c3cccc(-c4ccc(CN5CCC(CCN6CCCCC6)CC5)cc4)c3)nc2c1 to recorded IC50 (system: P. falciparum stage V gametocytes)
Completion: 0.43

Prompt: Value wanted: IC50 (P. falciparum stage V gametocytes) of entry O=C(Nc1nc(-c2ccccn2)cc2ccccc12)c1cccc(Cl)c1
Completion: 0.5

Prompt: Query for P. falciparum stage V gametocytes: what IC50 does the record show for O=[N+]([O-])c1ccc(C=NNc2nc(Nc3ccccc3)nc(Nc3ccccc3)n2)o1 ?
Completion: 1.31

Prompt: Under P. falciparum stage V gametocytes: IC50 value of CCN(CC)C(=NC(=N)NCc1ccc(Cl)cc1)NCCCCCCNC(=NC(=N)NCc1ccc(Cl)cc1)N(CC)CC ?
Completion: 0.79

Prompt: Record lookup: for P. falciparum stage V gametocytes, what IC50 belongs to Fc1ccc2[nH]c(-c3ccc(-c4ccc(CN5CCC(CCN6CCCCC6)CC5)cc4)cc3)nc2c1 ?
Completion: 0.46
